Molecular target: human M1 receptor (Homo sapiens (Human), UniProt P11229)
Sequence (P11229 whole entry): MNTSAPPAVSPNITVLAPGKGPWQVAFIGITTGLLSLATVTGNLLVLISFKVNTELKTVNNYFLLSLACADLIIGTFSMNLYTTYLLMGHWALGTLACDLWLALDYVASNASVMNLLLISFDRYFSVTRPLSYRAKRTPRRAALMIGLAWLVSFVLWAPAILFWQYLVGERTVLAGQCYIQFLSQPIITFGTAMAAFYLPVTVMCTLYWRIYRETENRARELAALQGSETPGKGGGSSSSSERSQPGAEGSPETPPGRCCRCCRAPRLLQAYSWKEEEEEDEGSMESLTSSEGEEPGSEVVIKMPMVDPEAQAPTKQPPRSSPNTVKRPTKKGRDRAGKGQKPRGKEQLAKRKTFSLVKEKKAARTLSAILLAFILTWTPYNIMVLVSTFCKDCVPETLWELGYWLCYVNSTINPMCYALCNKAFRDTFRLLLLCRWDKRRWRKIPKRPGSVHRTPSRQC
Experiment: In vitro functional assay of muscarinic acetylcholine receptor activity, aequorin calcium flux, reversal of EC80 acetylcholine
Format: cell-based
Method: CHO-K1 cells stably expressing human M1 receptor with aequorin (Perkin Elmer) were grown in F12 media (Gibco) containing 10% FBS (ATCC), 0.4 mg/mL geneticin (Sigma-Aldrich) and 0.25 mg/mL Zeocin (Invitrogen). Cells were grown as per the manufacturer's protocol. […] Compounds and cells were incubated at room temperature for 30 min in the dark. Acetylcholine at the EC80 concentration was added and calcium flux measured using a FlexStation 3 (Molecular Devices). […]
pIC50: −log10 of the molar value.
observable: pIC50

// pIC50 value for N#Cc1ccc(N2C3CCC2CN(C(=O)CCS(=O)(=O)c2cccc(Br)c2)C3)nc1 : 6.00 to 7.00

// pIC50 value for N#Cc1ccc(N2C3CCC2CN(C(=O)CCS(=O)(=O)c2ccccc2C(F)F)C3)nc1 : 6.00 to 7.00

// pIC50 value for COc1cccc(S(=O)(=O)CCC(=O)N2CC3CCC(C2)N3c2ccc(C)nn2)c1 : 6.00 to 7.00

// pIC50 value for COc1ccc(F)cc1S(=O)(=O)CCC(=O)N1CC2CCC(C1)N2c1ccc(C#N)cn1 : 7.00 to 8.00

// pIC50 value for COc1cccc(S(=O)(=O)CCC(=O)N2CC3CCC(C2)N3c2ccc(C(F)(F)F)nn2)c1 : 6.00 to 7.00

// pIC50 value for COc1cc(F)cc(S(=O)(=O)CCC(=O)N2CC3CCC(C2)N3c2ccc(C#N)cn2)c1 : 7.00 to 8.00

// pIC50 value for N#Cc1ccc(N2C3CCC2CN(C(=O)CCS(=O)(=O)c2cccc(F)c2)C3)nc1 : 7.00 to 8.00

// pIC50 value for COc1cccc(S(=O)(=O)CCC(=O)N2CC3CCC(C2)N3c2ccc(F)c(C#N)c2)c1 : 6.00 to 7.00

----------
Target: human M3 receptor (Homo sapiens (Human), UniProt P20309)
Sequence (P20309 whole entry, looked up): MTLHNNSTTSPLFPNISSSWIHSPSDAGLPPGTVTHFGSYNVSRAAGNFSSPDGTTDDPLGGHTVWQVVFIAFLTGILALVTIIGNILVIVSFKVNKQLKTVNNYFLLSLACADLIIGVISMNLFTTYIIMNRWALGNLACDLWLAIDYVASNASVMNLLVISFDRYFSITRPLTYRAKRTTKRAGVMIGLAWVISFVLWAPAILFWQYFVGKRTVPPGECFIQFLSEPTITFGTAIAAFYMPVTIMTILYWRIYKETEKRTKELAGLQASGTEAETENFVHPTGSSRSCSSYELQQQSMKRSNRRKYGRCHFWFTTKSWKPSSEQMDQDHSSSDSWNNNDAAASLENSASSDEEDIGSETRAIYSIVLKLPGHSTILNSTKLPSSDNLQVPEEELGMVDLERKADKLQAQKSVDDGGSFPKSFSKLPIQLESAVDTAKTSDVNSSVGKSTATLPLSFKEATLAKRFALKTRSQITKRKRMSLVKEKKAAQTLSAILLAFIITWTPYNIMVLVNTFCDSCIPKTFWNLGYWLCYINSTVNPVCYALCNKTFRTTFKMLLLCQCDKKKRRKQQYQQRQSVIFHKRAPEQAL
Test: Aequorin calcium flux assay, reversal of EC80 acetylcholine response, M3
Assay type: cell-based
observable: IC50

// IC50 value for Cc1c(F)cccc1S(=O)(=O)CCC(=O)N1CC2CCC(C1)N2c1ccc(C#N)cn1 [Example 24] : 100 to 1000 nM

// IC50 value for COc1cccc(S(=O)(=O)CCC(=O)N2CC3CCC(C2)N3c2ccc(C#N)cn2)c1 [Example 2] : 100 to 1000 nM

// IC50 value for COc1cc(S(=O)(=O)CCC(=O)N2CC3CCC(C2)N3c2ccc(C#N)cn2)ccc1F [Example 3] : 100 to 1000 nM

----------
Molecular target: human M1 receptor (Homo sapiens (Human))
Test: In vitro functional assay of muscarinic acetylcholine receptor activity, aequorin calcium flux, reversal of EC80 acetylcholine
Type: cell-based
Method: CHO-K1 cells stably expressing human M1 receptor with aequorin (Perkin Elmer) were grown in F12 media (Gibco) containing 10% FBS (ATCC), 0.4 mg/mL geneticin (Sigma-Aldrich) and 0.25 mg/mL Zeocin (Invitrogen). Cells were grown as per the manufacturer's protocol. […] Compounds and cells were incubated at room temperature for 30 min in the dark. Acetylcholine at the EC80 concentration was added and calcium flux measured using a FlexStation 3 (Molecular Devices). […]
pIC50: −log10 of the molar value.
observable: pIC50

// pIC50 value for N#Cc1ccc(N2C3CCC2CN(C(=O)CCS(=O)(=O)c2ccccc2C(F)(F)F)C3)nc1 : 6.00 to 7.00

// pIC50 value for COc1cccc(S(=O)(=O)CCC(=O)N2CC3CCC(C2)N3c2ccc(C#N)cn2)c1 : 7.00 to 8.00

// pIC50 value for N#Cc1ccc(N2C3CCC2CN(C(=O)CCS(=O)(=O)c2cccc(OC4CC4)c2)C3)nc1 : 6.00 to 7.00

// pIC50 value for N#Cc1ccc(N2C3CCC2CN(C(=O)CCS(=O)(=O)c2ccccc2Br)C3)nc1 : 6.00 to 7.00

// pIC50 value for N#Cc1ccc(N2C3CCC2CN(C(=O)CCS(=O)(=O)c2ccccc2[C@@H]2CC2(F)F)C3)nc1 (single isomer, unassigned) : 6.00 to 7.00

// pIC50 value for COc1c(F)cccc1S(=O)(=O)CCC(=O)N1CC2CCC(C1)N2c1ccc(C#N)cn1 : 7.00 to 8.00

// pIC50 value for N#Cc1ccc(N2C3CCC2CN(C(=O)CCS(=O)(=O)c2ccnc(C4CC4)c2)C3)nc1 : 6.00 to 7.00

// pIC50 value for N#Cc1ccc(N2C3CCC2CN(C(=O)CCS(=O)(=O)c2cc(F)cc(F)c2)C3)nc1 : 7.00 to 8.00

// pIC50 value for N#Cc1ccc(N2C3CCC2CN(C(=O)CCS(=O)(=O)c2cccnc2C2CC2)C3)nc1 : 7.00 to 8.00

// pIC50 value for Cc1ccc(F)cc1S(=O)(=O)CCC(=O)N1CC2CCC(C1)N2c1ccc(C#N)cn1 : 6.00 to 7.00

// pIC50 value for N#Cc1ccc(N2C3CCC2CN(C(=O)CCS(=O)(=O)c2ccccc2C2CC2(F)F)C3)nc1 (racemic) : 7.00 to 8.00

// pIC50 value for CC(F)(F)c1ccccc1S(=O)(=O)CCC(=O)N1CC2CCC(C1)N2c1ccc(C#N)cn1 : 6.00 to 7.00

// pIC50 value for Cc1cc(F)cc(S(=O)(=O)CCC(=O)N2CC3CCC(C2)N3c2ccc(C#N)cn2)c1 : 6.00 to 7.00

// pIC50 value for N#Cc1ccc(N2C3CCC2CN(C(=O)CCS(=O)(=O)c2ncccc2C2CC2)C3)nc1 : 6.00 to 7.00

// pIC50 value for COc1cc(S(=O)(=O)CCC(=O)N2CC3CCC(C2)N3c2ccc(C#N)cn2)ccn1 : 7.00 to 8.00

----------
Target: human M2 receptor (Homo sapiens (Human))
Sequence (P08172 whole entry): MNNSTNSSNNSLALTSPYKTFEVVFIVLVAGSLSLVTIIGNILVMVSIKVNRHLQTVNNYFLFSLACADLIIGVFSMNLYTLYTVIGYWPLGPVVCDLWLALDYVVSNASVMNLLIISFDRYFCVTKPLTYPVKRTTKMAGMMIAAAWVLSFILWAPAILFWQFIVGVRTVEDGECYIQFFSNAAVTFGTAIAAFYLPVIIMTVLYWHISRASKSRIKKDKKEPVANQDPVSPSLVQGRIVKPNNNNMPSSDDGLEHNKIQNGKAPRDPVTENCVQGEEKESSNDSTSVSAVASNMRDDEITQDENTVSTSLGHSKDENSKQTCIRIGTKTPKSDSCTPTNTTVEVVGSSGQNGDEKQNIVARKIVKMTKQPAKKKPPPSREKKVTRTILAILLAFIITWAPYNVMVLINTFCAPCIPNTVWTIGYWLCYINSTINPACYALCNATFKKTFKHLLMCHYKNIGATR
Test: Aequorin calcium flux assay, reversal of EC80 acetylcholine response, M2
Type: cell-based
Conditions: CHO-K1 cells expressing human M2 receptor with aequorin; acetylcholine at EC80; read-out: M2 IC50
Give IC50 for every item shown.

// IC50 value for COc1cc(S(=O)(=O)CCC(=O)N2CC3CCC(C2)N3c2ccc(C#N)cn2)ccc1F : > 10 µM

// IC50 value for COc1cccc(S(=O)(=O)CCC(=O)N2CC3CCC(C2)N3c2ccc(C#N)cn2)c1 : > 10 µM

// IC50 value for Cc1c(F)cccc1S(=O)(=O)CCC(=O)N1CC2CCC(C1)N2c1ccc(C#N)cn1 : 1 to 10 µM

----------
Give IC50 for every item shown.
Biological target: human M4 receptor (Homo sapiens (Human))
Sequence (P08173 whole entry): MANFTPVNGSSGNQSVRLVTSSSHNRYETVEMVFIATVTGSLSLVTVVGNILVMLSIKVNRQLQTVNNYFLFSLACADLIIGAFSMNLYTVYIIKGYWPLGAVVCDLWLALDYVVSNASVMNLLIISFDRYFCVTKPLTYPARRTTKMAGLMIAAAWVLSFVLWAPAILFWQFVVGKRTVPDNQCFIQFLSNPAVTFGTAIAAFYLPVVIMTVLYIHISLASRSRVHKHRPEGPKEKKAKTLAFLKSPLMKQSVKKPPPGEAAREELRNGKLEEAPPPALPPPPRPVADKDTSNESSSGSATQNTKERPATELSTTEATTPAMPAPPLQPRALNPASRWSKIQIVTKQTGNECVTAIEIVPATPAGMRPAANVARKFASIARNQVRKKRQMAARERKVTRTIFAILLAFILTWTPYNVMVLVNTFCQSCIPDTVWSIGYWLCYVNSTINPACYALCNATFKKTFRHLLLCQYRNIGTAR
Assay: Aequorin calcium flux assay, reversal of EC80 acetylcholine response, M4
Assay type: cell-based

// IC50 value for COc1cc(S(=O)(=O)CCC(=O)N2CC3CCC(C2)N3c2ccc(C#N)cn2)ccc1F : 100 to 1000 nM

// IC50 value for COc1cccc(S(=O)(=O)CCC(=O)N2CC3CCC(C2)N3c2ccc(C#N)cn2)c1 : 100 to 1000 nM

// IC50 value for Cc1c(F)cccc1S(=O)(=O)CCC(=O)N1CC2CCC(C1)N2c1ccc(C#N)cn1 : 100 to 1000 nM

----------
Target: human M1 receptor (Homo sapiens (Human), UniProt P11229)
Experiment: In vitro functional assay of muscarinic acetylcholine receptor activity, aequorin calcium flux, reversal of EC80 acetylcholine
Type: cell-based
pIC50: −log10 of the molar value.
observable: pIC50

// pIC50 value for COc1cccc(S(=O)(=O)CCC(=O)N2CC3CCC(C2)N3c2ccc(C#N)c(F)c2)c1 : 7.00 to 8.00

// pIC50 value for COc1cccc(S(=O)(=O)CCC(=O)N2CC3CCC(C2)N3c2ccc(C(F)(F)F)cn2)c1 : 6.00 to 7.00

// pIC50 value for N#Cc1ccc(N2C3CCC2CN(C(=O)CCS(=O)(=O)c2ccccc2OC(F)(F)F)C3)nc1 : 6.00 to 7.00

// pIC50 value for COc1ccccc1S(=O)(=O)CCC(=O)N1CC2CCC(C1)N2c1ccc(C#N)cn1 : 7.00 to 8.00

----------
Molecular target: human M4 receptor (Homo sapiens (Human))
Assay: Aequorin calcium flux assay, reversal of EC80 acetylcholine response, M4
Assay type: cell-based
Conditions: CHO-K1 cells expressing human M4 receptor with aequorin; acetylcholine at EC80; read-out: M4 IC50
observable: IC50

// IC50 value for N#Cc1ccc(N2C3CCC2CN(C(=O)CCS(=O)(=O)c2ccccc2[C@H]2CC2(F)F)C3)nc1 (single isomer, unassigned) [Example 35] : 10 to 100 nM

----------
Molecular target: human M3 receptor (Homo sapiens (Human), UniProt P20309)
Assay: Aequorin calcium flux assay, reversal of EC80 acetylcholine response, M3
Format: cell-based
Conditions: CHO-K1 cells expressing human M3 receptor with aequorin; acetylcholine at EC80; read-out: M3 IC50
observable: IC50

// IC50 value for N#Cc1ccc(N2C3CCC2CN(C(=O)CCS(=O)(=O)c2ccccc2[C@H]2CC2(F)F)C3)nc1 (single isomer, unassigned) : 100 to 1000 nM

Value source: patent US11752149B2
